Listing of recorded pEC50 by entry.
- tested.system: Kappa-type opioid receptor (Homo sapiens)
- Sequence (P41145 whole entry): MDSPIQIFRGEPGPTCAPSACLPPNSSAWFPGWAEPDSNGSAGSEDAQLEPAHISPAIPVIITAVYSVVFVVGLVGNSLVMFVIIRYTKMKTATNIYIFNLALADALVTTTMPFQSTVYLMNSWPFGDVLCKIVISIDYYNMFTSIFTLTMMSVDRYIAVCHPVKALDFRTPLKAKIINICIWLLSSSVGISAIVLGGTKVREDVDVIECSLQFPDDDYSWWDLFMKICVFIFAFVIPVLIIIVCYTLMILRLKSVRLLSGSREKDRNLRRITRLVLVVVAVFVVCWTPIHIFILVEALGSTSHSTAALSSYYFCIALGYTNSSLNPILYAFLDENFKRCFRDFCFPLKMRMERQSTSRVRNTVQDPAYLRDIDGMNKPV
- test.summary: Activity at human cloned kappa opioid receptor expressed in CHO cells by [35S]GTPgammaS binding assay
- Type: functional, cell-based
// field semantics: pEC50 = negative decimal log of concentration (mol/L)

CC1C2Cc3ccc(C(N)=O)cc3C1(C)CCN2CCc1ccccc1 (stereo unspecified); 8.36
C[C@@H]1[C@@H]2Cc3ccc(C(N)=O)cc3[C@@]1(C)CCN2C[C@@H]1CCCO1; 7.52
CC1C2C(=O)c3ccc(C(N)=O)cc3C1(C)CCN2CC1CC1 (stereo unspecified); 8.02
Oc1ccc2c(c1)[C@@]13CCCC[C@@]1(O)[C@@H](C2)N(CC1CCC1)CC3; 8.54
C[C@@H]1[C@@H]2Cc3ccc(O)cc3[C@@]1(C)CCN2C[C@H]1CCCO1; 7.39

I have this molecule here, C[C@H]1[C@@H]2Cc3ccc(O)cc3[C@]1(C)CCN2C , and I need its recorded pEC50.
6.92

I have this molecule here, CC1C2Cc3ccc(O)cc3[C@@]1(C)CCN2C[C@@H]1CCCO1 (single isomer, unassigned) , and I need its recorded pEC50.
9.00

I have this molecule here, NC(=O)c1ccc2c(c1)[C@@]13CCCC[C@@]1(O)[C@@H](C2)N(CC1CCC1)CC3 , and I need its recorded pEC50.
8.42

I have this molecule here, C[C@H]1C2Cc3ccc(O)cc3[C@@]1(C)CCN2CCc1ccccc1 , and I need its recorded pEC50.
8.09

I have this molecule here, C[C@H]1[C@H]2C(=O)c3ccc(O)cc3[C@]1(C)CCN2CC1CC1 , and I need its recorded pEC50.
8.48

I have this molecule here, C[C@@H]1[C@@H]2Cc3ccc(C(N)=O)cc3[C@@]1(C)CCN2C[C@H]1CCCO1 , and I need its recorded pEC50.
6.77
